Target: T1, RSV F glycoprotein (NUF4) (respiratory syncytial virus)
T1 chain 1: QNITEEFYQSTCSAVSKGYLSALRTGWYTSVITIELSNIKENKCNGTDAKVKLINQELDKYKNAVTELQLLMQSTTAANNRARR
T1 chain 2: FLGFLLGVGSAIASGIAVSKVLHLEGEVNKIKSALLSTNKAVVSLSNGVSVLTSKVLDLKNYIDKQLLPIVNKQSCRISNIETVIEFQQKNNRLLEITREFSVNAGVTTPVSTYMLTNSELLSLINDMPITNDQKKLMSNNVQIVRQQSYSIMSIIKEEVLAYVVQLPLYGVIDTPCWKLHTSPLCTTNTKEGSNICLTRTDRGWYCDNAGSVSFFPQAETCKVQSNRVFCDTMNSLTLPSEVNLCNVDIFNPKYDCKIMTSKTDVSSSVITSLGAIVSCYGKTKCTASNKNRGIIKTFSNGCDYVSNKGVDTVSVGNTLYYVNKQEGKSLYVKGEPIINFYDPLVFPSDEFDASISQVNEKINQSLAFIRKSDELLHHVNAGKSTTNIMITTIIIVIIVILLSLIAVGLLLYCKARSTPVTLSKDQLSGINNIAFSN
Assay: SPR (BIAcore), mAb vs NUF4 (1:1)
Give measured fold in parentheses (palivizumab = 1) for each item. Keep answers brief.
Give bare numbers, in fold.

binder | u | fold in parentheses (palivizumab = 1)
P12f2 IgG (antibody, V domains shown) VH: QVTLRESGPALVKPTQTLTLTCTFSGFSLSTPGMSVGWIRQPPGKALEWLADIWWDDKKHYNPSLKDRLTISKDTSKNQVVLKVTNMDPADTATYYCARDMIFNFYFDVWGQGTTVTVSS VL: DIQMTQSPSTLSASVGDRVTITCSLSSRVGYMHWYQQKPGKAPKLLIYDTFYLSSGVPSRFSGSGSGTEFTLTISSLQPDDFATYYCFQGSGYPFTFGGGTKVEIKR | fold | 26

*Q* Complete the entry with fold in parentheses (palivizumab = 1) for P12f4 IgG (antibody, V domains shown) VH: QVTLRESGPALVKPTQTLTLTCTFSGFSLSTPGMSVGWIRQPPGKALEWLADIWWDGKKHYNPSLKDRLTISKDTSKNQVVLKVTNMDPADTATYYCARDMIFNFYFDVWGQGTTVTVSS VL: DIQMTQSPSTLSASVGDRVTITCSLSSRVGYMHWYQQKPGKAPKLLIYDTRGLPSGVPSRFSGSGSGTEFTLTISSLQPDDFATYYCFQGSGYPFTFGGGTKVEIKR
*A* 36
